System: BMPR2;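 also: KINOMEscan kinase panel screen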
particulars: concentration: 1 μM, replicates: in singlicate; n = 1
readout.type: %Inh (%)
Write down the numeric answer in % and omit the unit.

Please give the documented %Inh of CS(=O)(=O)c1ccc(-c2nc3n(c2-c2ccncc2)CCC3)cc1 [SKF-105942]
0

Please give the documented %Inh of Cn1ccc2ncnc(Oc3cccc(C(=O)Nc4ccccc4)c3)c21
14

Please give the documented %Inh of O=C1NC(=O)C(N2CCc3ccccc32)=C1c1ccccc1Cl [SB-373598]
100

Please give the documented %Inh of Cl.c1ccc(-c2n[nH]cc2-c2ccnc(-c3ccc(CN4CCOCC4)cc3)c2)nc1 [GW776245]
0

Please give the documented %Inh of COc1cccc(-c2cc(-c3c[nH]nc3-c3ccccn3)ccn2)c1 [GW680338]
10

Please give the documented %Inh of COc1ccc2nc(-c3cccc(C)n3)nc(Nc3ccncc3)c2c1 [GSK204919]
0

Please give the documented %Inh of Cc1ccccc1-n1cnc2c(N)ncnc21 [SKF-97510]
0

Please give the documented %Inh of Cc1cccc(-c2cc(Nc3ccncc3)c3ccccc3n2)n1 [GSK223675]
0

Please give the documented %Inh of Nc1ncnc2[nH]c(-c3ccccc3)nc12 [AH5015]
0

Please give the documented %Inh of CCn1c(-c2cccnc2O)nc2cnccc21 [SB-736715]
0

Please give the documented %Inh of COc1cc2nccc(Nc3ccc(NC(=O)c4ccc(C)cc4)c(O)c3)c2cc1OC.Cl [GW440132]
0

Please give the documented %Inh of Fc1cccc(COc2nnc(-c3ccc4c(c3)CCO4)o2)c1
18

Please give the documented %Inh of COc1cc2ncnc(Nc3ccc4nc(-c5ccccc5)[nH]c4c3)c2cc1OC.Cl [GW282450]
0

Please give the documented %Inh of COC(=O)c1c(-c2ccccc2)c2cc(C(=O)O)ccc2c(=O)n1Cc1ccccc1
0

Please give the documented %Inh of Cc1cccc(-c2nc(-c3ccc(S(C)(=O)=O)cc3)sc2-c2ccnc(NCCc3ccccc3)c2)c1
1

Please give the documented %Inh of CCCc1ccc(S(=O)(=O)NC2CCN(c3ccnc(Nc4ccc(F)cc4)n3)C2)cc1 (stereo not shown) [GSK1379715]
0

Please give the documented %Inh of Cc1ccc(NC(=O)Nc2cccc(Cl)c2)cc1-c1ccc(C(=O)Nc2ccncc2)cc1 [GSK1398468]
0

Please give the documented %Inh of Cl.NC(=O)c1cccc(Nc2nccc(Nc3ccc(Oc4cccc(Cl)c4)c(Cl)c3)n2)c1 [GW659008]
3

Please give the documented %Inh of Cn1cncc1-c1ccc2ncnc(Nc3ccc(OCc4ccccc4)cc3)c2c1 [GW320571]
0
